As shown below, each of these compounds has a reported Log Ki value.
Molecular target: Glutamate NMDA receptor
Assay: In vitro ability to inhibit the binding of [3H]glycine to glycine binding site of N-methyl-D-aspartate glutamate receptor in rat synaptic membranes
Format: cell membranes, Membrane
Assay endpoint: Log Ki

* CC(=O)Nc1ccc(NC(=O)/C=C2\CC(C(=O)O)Nc3cc(Cl)cc(Cl)c32)cc1 (stereo in doubt; 3c) | -8.52
* COCC(=O)Nc1ccc(NC(=O)/C=C2\CC(C(=O)O)Nc3cc(Cl)cc(Cl)c32)cc1 (configuration not stated) | -8.18
* N#CCc1ccc(NC(=O)/C=C2\CC(C(=O)O)Nc3cc(Cl)cc(Cl)c32)cc1 (configuration not stated) | -8.15
* CS(=O)(=O)Nc1ccc(NC(=O)/C=C2\CC(C(=O)O)Nc3cc(Cl)cc(Cl)c32)cc1 (configuration not stated) | -8.18
* NC(=O)Cc1ccc(NC(=O)/C=C2\CC(C(=O)O)Nc3cc(Cl)cc(Cl)c32)cc1 (configuration not stated) | -8.18
* N#C/C=C/c1ccc(NC(=O)/C=C2\CC(C(=O)O)Nc3cc(Cl)cc(Cl)c32)cc1 (configuration not stated) | -7.73
* CC(C)C(=O)NCc1ccc(NC(=O)/C=C2\CC(C(=O)O)Nc3cc(Cl)cc(Cl)c32)cc1 (configuration not stated) | -7.78
* CC(=O)NCc1ccc(NC(=O)/C=C2\CC(C(=O)O)Nc3cc(Cl)cc(Cl)c32)cc1 (configuration not stated) | -8.32
* O=C(/C=C1\CC(C(=O)O)Nc2cc(Cl)cc(Cl)c21)Nc1ccccc1 (configuration not stated) | -8.18
* O=C(/C=C/c1c(C(=O)O)[nH]c2cc(Cl)cc(Cl)c12)Nc1ccccc1 | -8.52
* NC(=O)NCc1ccc(NC(=O)/C=C2\CC(C(=O)O)Nc3cc(Cl)cc(Cl)c32)cc1 (configuration not stated) | -8.38
* CC(=O)Nc1ccc(NC(=O)/C=C2\CC(C(=O)O)Nc3cc(Cl)cc(Cl)c32)cc1 (single isomer, unassigned; (-)) | -7.3
* CC(=O)Nc1ccc(NC(=O)/C=C2\CC(C(=O)O)Nc3cc(Cl)cc(Cl)c32)cc1 (single isomer, unassigned; (+)) | -8.79
* NC(=O)/C=C/c1ccc(NC(=O)/C=C2\CC(C(=O)O)Nc3cc(Cl)cc(Cl)c32)cc1 (configuration not stated) | -8.15
* Nc1ccc(NC(=O)/C=C2\CC(C(=O)O)Nc3cc(Cl)cc(Cl)c32)cc1 (configuration not stated) | -7.76
* NS(=O)(=O)Nc1ccc(NC(=O)/C=C2\CC(C(=O)O)Nc3cc(Cl)cc(Cl)c32)cc1 (configuration not stated) | -8.17
* O=C(O)Cc1ccc(NC(=O)/C=C2\CC(C(=O)O)Nc3cc(Cl)cc(Cl)c32)cc1 (configuration not stated) | -7.72

Values compiled from ChEMBL document CHEMBL1145869.
